These measurements were taken from ChEMBL document CHEMBL3804755.

- TARGET_SYSTEM: Epidermal growth factor receptor (Homo sapiens, UniProt P00533, L858R/T790M)
- Sequence (P00533 25-1210 T790M/L858R limits assumed): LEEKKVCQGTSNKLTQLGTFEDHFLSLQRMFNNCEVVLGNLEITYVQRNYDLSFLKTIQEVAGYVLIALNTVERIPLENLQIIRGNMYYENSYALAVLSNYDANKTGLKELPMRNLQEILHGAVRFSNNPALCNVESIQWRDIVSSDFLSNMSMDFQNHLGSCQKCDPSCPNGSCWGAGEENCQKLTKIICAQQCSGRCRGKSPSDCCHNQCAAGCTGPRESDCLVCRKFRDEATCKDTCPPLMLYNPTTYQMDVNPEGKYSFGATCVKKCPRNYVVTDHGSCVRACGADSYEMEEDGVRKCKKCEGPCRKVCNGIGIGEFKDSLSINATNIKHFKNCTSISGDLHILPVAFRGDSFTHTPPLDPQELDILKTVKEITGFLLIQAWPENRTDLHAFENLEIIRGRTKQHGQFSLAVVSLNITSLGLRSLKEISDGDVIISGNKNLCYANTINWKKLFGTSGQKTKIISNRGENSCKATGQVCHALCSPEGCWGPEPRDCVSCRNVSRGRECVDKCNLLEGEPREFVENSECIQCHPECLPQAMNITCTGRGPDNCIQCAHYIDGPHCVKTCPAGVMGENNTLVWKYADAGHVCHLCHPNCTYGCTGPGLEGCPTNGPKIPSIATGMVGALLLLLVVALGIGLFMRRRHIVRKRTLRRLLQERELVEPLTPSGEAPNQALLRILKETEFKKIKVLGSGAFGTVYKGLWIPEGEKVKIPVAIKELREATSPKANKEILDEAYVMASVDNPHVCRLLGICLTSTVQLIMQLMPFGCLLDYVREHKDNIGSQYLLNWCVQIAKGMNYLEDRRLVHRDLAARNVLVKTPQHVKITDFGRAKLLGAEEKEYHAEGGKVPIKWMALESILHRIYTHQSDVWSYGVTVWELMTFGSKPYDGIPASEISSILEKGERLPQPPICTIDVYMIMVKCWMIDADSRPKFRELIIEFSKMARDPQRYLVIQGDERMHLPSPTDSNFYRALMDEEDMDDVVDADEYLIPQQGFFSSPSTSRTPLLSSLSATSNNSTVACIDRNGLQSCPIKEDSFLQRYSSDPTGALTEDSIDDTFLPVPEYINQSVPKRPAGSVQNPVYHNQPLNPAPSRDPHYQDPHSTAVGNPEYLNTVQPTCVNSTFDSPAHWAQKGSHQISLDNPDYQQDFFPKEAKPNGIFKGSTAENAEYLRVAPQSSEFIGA
- Type: protein assay
pIC50: −log10 of the molar value.
OUTCOME_MEASURE: pIC50

a. CCOc1cc2ncnc(Nc3ccc(F)c(Cl)c3)c2c2c1OCCO2
b. C#Cc1cccc(Nc2ncnc3cc(OC4CCOC4)c4c(c23)OCCO4)c1 (stereo not given)
Which item exceeds the other in pIC50, a or b ? Bench note: the answer is the label of the chosen record.
a
(a: 8.16, b: 6.49)

###

Listing: CC50 of selected compounds
- ASSAY_NAME: Cytotoxicity against HEK293T assessed as reduction in cell viability by MTT assay
- Type: cell-based, HEK-293T
- CONDITIONS: human, HEK293T cells
Give the value in µM but do not write µM after it.

{"COMPOUND": "C#Cc1cccc(Nc2ncnc3cc(OCC)c4c(c23)OCCO4)c1", "CC50, µM": 28.2}

Consider the record given below.
Consider the compound `C#Cc1cccc(Nc2ncnc3cc(OCCOC)c4c(c23)OCCO4)c1` and give its measured CC50.
22.1
